AST/ALT overview
experiment: Serum AST and ALT in mice after 14 days of intragastric administration; format: in vivo; details: mouse, in vivo, 60 mg/kg/day
Answer using only a numeral; do not append any unit.

In the examples that follow, each entry is paired with its recorded AST/ALT.
CCOc1c(OC)cc2c3c1Oc1cc4c(cc1OC)CCN(C)C4Cc1ccc(cc1)Oc1cc(ccc1OC)CC3N(C)CC2 (centres unmarked) :: 1.25
COc1cc(Br)c2cc1Oc1ccc(cc1)CC1c3cc(c(OC)cc3CCN1C)Oc1c(OC)c(OC)c(Br)c3c1C(C2)N(C)CC3 (centres unmarked) :: 1.24
CCCCOc1c(OC)cc2c3c1Oc1cc4c(cc1OC)CCN(C)C4Cc1ccc(cc1)Oc1cc(ccc1OC)CC3N(C)CC2 (centres unmarked) :: 1.14
COc1ccc2cc1Oc1ccc(cc1)CC1c3cc(c(OC)cc3CCN1C)Oc1c(OC)c(OC)c(Cl)c3c1C(C2)N(C)CC3 (centres unmarked) :: 1.45

Now for another entry.
Ask: # input molecule: CCCOc1c(OC)cc2c3c1Oc1cc4c(cc1OC)CCN(C)C4Cc1ccc(cc1)Oc1cc(ccc1OC)CC3N(C)CC2 (centres unmarked) ; wanted: its AST/ALT
Result: 1.08

----------
experiment: Serum AST and ALT in mice after 14 days of intragastric administration; type: in vivo; settings: mouse, in vivo, 60 mg/kg/day
assay-readout: AST (U/L)
// units = U/L; emit number, no label

In the examples that follow, each entry is paired with its recorded AST.
CCCCOc1c(OC)cc2c3c1Oc1cc4c(cc1OC)CCN(C)C4Cc1ccc(cc1)Oc1cc(ccc1OC)CC3N(C)CC2 (stereo not shown) :: 93.6
COc1ccc2cc1Oc1ccc(cc1)CC1c3cc(c(OC)cc3CCN1C)Oc1c(OC(C)C)c(OC)cc3c1C(C2)N(C)CC3 (stereo not shown) :: 89.2
CCOc1c(OC)cc2c3c1Oc1cc4c(cc1OC)CCN(C)C4Cc1ccc(cc1)Oc1cc(ccc1OC)CC3N(C)CC2 (stereo not shown) :: 102.3
CCOc1c(OC)c(Br)c2c3c1Oc1cc4c(cc1OC)CCN(C)C4Cc1ccc(cc1)Oc1cc(c(Br)cc1OC)CC3N(C)CC2 (stereo not shown) :: 101.5
COc1cc(Br)c2cc1Oc1ccc(cc1)CC1c3cc(c(OC)cc3CCN1C)Oc1c(OC)c(OC)c(Br)c3c1C(C2)N(C)CC3 (stereo not shown) :: 108.4

Ask: # input molecule: COc1ccc2cc1Oc1ccc(cc1)CC1c3cc(c(OC)cc3CCN1C)Oc1c(OC)c(OC)c(Cl)c3c1C(C2)N(C)CC3 (stereo not shown) ; wanted: its AST
Result: 117.7

Ask: # input molecule: CCCOc1c(OC)cc2c3c1Oc1cc4c(cc1OC)CCN(C)C4Cc1ccc(cc1)Oc1cc(ccc1OC)CC3N(C)CC2 (stereo not shown) ; wanted: its AST
Result: 99.4

----------
tested on: chronic unpredictable stress (CUS) model in rats; test: Elevated plus-maze (EPM) anxiety test in CUS model in rats; format: in vivo; settings: 15 mg/kg intragastric daily
Percentage of residence time in open arms overview

In the examples that follow, each entry is paired with its recorded Percentage of residence time in open arms.
CCCCOc1c(OC)cc2c3c1Oc1cc4c(cc1OC)CCN(C)C4Cc1ccc(cc1)Oc1cc(ccc1OC)CC3N(C)CC2 (stereo not drawn) [Compound 7, 7-butoxy fangchinoline] :: 62.1 ± 3.4^##,$$ %
COc1ccc2cc1Oc1ccc(cc1)CC1c3cc(c(OC)cc3CCN1C)Oc1c(OC)c(OC)c(Cl)c3c1C(C2)N(C)CC3 (stereo not drawn) [Compound 1, 5-chloro-7-methoxy fangchinoline] :: 60.8 ± 4.0^##,$$ %
COc1ccc2cc1Oc1ccc(cc1)C[C@H]1c3cc(c(OC)cc3CCN1C)Oc1c(OC)c(OC)cc3c1[C@H](C2)N(C)CC3 [tetrandrine, reference compound] :: 40.6 ± 4.8%
COc1cc(Br)c2cc1Oc1ccc(cc1)CC1c3cc(c(OC)cc3CCN1C)Oc1c(OC)c(OC)c(Br)c3c1C(C2)N(C)CC3 (stereo not drawn) [Compound 2, 5,14-dibromo-7-methoxy fangchinoline] :: 63.6 ± 4.1^##,$$ %
CCOc1c(OC)cc2c3c1Oc1cc4c(cc1OC)CCN(C)C4Cc1ccc(cc1)Oc1cc(ccc1OC)CC3N(C)CC2 (stereo not drawn) [Compound 3, 7-ethoxy fangchinoline] :: 72.3 ± 3.6^##,$$ %

Ask: Lab request: please report Percentage of residence time in open arms under test system chronic unpredictable stress (CUS) model in rats for CCCOc1c(OC)cc2c3c1Oc1cc4c(cc1OC)CCN(C)C4Cc1ccc(cc1)Oc1cc(ccc1OC)CC3N(C)CC2 (stereo not drawn) [Compound 6, 7-propoxy fangchinoline]
Result: 64.1 ± 3.6^##,$$ %
